Test system: SK-MEL-28
Test: NCI tumour cell line growth inhibition, 48 h
Active and inactive are the calls of the source. Cut-off read from the data, not from the text of the source: active = GI50 up to about 1.1 µM and inactive = higher.
TEST READOUT: GI50

compound=CN(CCNC(=O)c1c[nH]c2c1Cc1ccccc1-2)CCNC(=O)c1c[nH]c2c1Cc1ccccc1-2 value_reported="48.5 µM (inactive)"
compound="OCC1OC(NCCNCCNC2OC(CO)C(O)C(O)C2O)C(O)C(O)C1O (configuration not stated)" value_reported="> 100 µM (inactive)"
compound="COc1ccc(C2CC(C)=Nc3c(O)nc(S)nc3N2)cc1 (configuration not stated)" value_reported="27 µM (inactive)"
compound=O=C1c2ccc3cc(CCl)cc(O)c3c2C(=O)c2cccc(O)c21 value_reported="1.77 µM (inactive)"
compound="CN(CCCCCl)P(=O)(OCc1ccc([N+](=O)[O-])o1)OC[C@H]1O[C@@H](n2cc(F)c(=O)[nH]c2=O)C[C@@H]1O (some centres not stated)" value_reported="21.2 µM (inactive)"
compound=COc1ccc2c(c1)CC[C@@H]1[C@@H]2CC[C@]2(C)/C(=N/OCCN3CCCCC3)CC[C@@H]12 value_reported="2.12 µM (inactive)"
compound=c1csc(-c2ccsc2-c2ccsc2)c1 value_reported="> 100 µM (inactive)"
compound=OC(Cc1ccccc1)(Cc1ccccc1)c1ccccc1 value_reported="21.9 µM (inactive)"
compound="COc1cc2c(cc1C1COc3cc4occc4cc3C1=O)OCO2 (configuration not stated)" value_reported="40.1 µM (inactive)"
compound=O=C(c1ccccc1)c1nnn(Cc2cccc(Cl)c2)c1C(=O)c1ccccc1 value_reported="> 100 µM (inactive)"
compound="Cc1ccc([N+](=O)[O-])cc1S(=O)(=O)Nc1ccc(C2=NOC(c3ccccc3)C2)cc1 (configuration not stated)" value_reported="18.7 µM (inactive)"
compound=c1ccc2c3c([nH]c2c1)C1c2[nH]c4ccccc4c2CCN1CC3 value_reported="15.2 µM (inactive)"
compound=O=c1n(C2CCCCC2)c(=C(Cl)Cl)c(=C(Cl)Cl)n1C1CCCCC1 value_reported="> 100 µM (inactive)"
compound=O=C(Nc1cccc([N+](=O)[O-])c1)c1nnn(-c2cccc([N+](=O)[O-])c2)c1O value_reported="> 100 µM (inactive)"
compound="COc1cc(C2c3cc4c(cc3[C@@H](NCCN(C)C)C3COC(=O)[C@H]23)OCO4)cc(OC)c1O (some centres not stated)" value_reported="0.309 µM (active)"
compound=CCCCNC(=NC#N)NCCCC value_reported="> 100 µM (inactive)"
compound="COc1ccc2c(c1)C=C([N+](=O)[O-])C(C1OC(C)(C)OC1C1COC(C)(C)O1)O2 (configuration not stated)" value_reported="1.74 µM (inactive)"
compound="COC(=O)C1=C(O)C(C(=O)OC)[C@@]2(O)[C@@H](C(=O)OC)C(c3ccc(OC(=O)/C(=C/c4ccccc4)c4ccccc4)cc3)C[C@@H]1[C@@H]2C(=O)OC (some centres not stated)" value_reported="81.5 µM (inactive)"
compound=CSc1c(C(=O)Nc2ccc(C)cc2)c(N)nn1-c1ccccc1 value_reported="55.1 µM (inactive)"
compound="CCC1CN(C(=O)c2ccccc2)C(Cc2c[nH]c3ccccc23)C(=O)C1CC(=O)OC (configuration not stated)" value_reported="> 100 µM (inactive)"
compound=Cc1nc2nnc(CCCCCCCCc3nnc4nc(C)[nH]n34)n2[nH]1 value_reported="> 100 µM (inactive)"
compound="CCOC(=O)C1(C/C=C\\CBr)CCCCCCCCCCC1=O (configuration not stated)" value_reported="15.7 µM (inactive)"
compound=Oc1ccccc1/C=N/c1ccc(-c2nc3ccccc3s2)cc1 value_reported="41.7 µM (inactive)"
compound=CSc1ccc(-c2cc(-c3nc4ccccc4[nH]3)no2)cc1 value_reported="27.6 µM (inactive)"
compound=Oc1ccc(N=C2CCC(=C(c3ccccc3)c3ccc(Nc4ccc(O)cc4)cc3)CC2)cc1 value_reported="> 100 µM (inactive)"
compound="O=C(C1OC1c1ccc([N+](=O)[O-])cc1)C12CC3CC(CC(C3)C1)C2 (configuration not stated)" value_reported="17.6 µM (inactive)"
compound="O=C1CC(CC(O)[C@@H]2CCCC[C@@H]2O)CC(=O)N1c1ccccc1 (some centres not stated)" value_reported="> 100 µM (inactive)"

###

System: EKVX
Assay: NCI tumour cell line growth inhibition, 48 h
Activity calls are given as the source filed them. Cut-off read from the data, not from the text of the source: active = GI50 up to about 1.1 µM and inactive = higher.
TEST READOUT: GI50

molecule=CC1=CC(=O)C(=C(C)C)CC1 tested_system=EKVX test_readout=GI50 value_reported="> 100 µM (inactive)"
molecule="COC(=O)C1=C(\\O)C[C@@]2(C)CC[C@@H](C(=O)OC)C2C/C=C\\1C(=O)OC (stereo partly specified)" tested_system=EKVX test_readout=GI50 value_reported="> 100 µM (inactive)"
molecule=CN(CC(=O)O)Cc1oc(CO)cc(=O)c1O tested_system=EKVX test_readout=GI50 value_reported="> 100 µM (inactive)"
molecule="CN(C)CCN(C)CC1COC(C)(C)O1 (stereo unspecified)" tested_system=EKVX test_readout=GI50 value_reported="> 100 µM (inactive)"
molecule=C[Si](C)(C)c1ccc(CC2(Cc3ccc([Si](C)(C)C)cc3)CCNC2)cc1 tested_system=EKVX test_readout=GI50 value_reported="6.75 µM (inactive)"
molecule="NCCC1([N+](=O)[O-])C=CN=CC1 (stereo unspecified)" tested_system=EKVX test_readout=GI50 value_reported="> 100 µM (inactive)"

###

GI50 values for the molecules below.
Test system: SF-268
Experiment: NCI tumour cell line growth inhibition, 48 h
Active and inactive are the calls of the source. Cut-off read from the data, not from the text of the source: active = GI50 up to about 1.1 µM and inactive = higher.
TEST READOUT: GI50

molecule=[O-]c1c2c(nn1-c1ccc(F)cc1)c1ccccc1c[n+]2Cc1ccccc1 tested_system=SF-268 value_reported="18.9 µM (inactive)"
molecule=c1cc2nnc1SCCSCCSCCSc1ccc(nn1)SCCSCCSCCS2 tested_system=SF-268 value_reported="> 100 µM (inactive)"
molecule="NC1N=Nc2ccccc21 (centres undefined)" tested_system=SF-268 value_reported="> 100 µM (inactive)"
molecule="O=C1CC(CC(O)[C@@H]2CCCC[C@@H]2O)CC(=O)N1c1ccccc1 (some centres undefined)" tested_system=SF-268 value_reported="> 100 µM (inactive)"

###

Tested on: OVCAR-3
Assay: NCI tumour cell line growth inhibition, 48 h
Active and inactive are the calls of the source. No stated cut-off is given here; in the data, active = GI50 up to about 1.1 µM and inactive = higher.
TEST READOUT: GI50

molecule=C[C@@H]1CCC([C@@H](C)[C@H]2CC[C@H]3[C@@H]4CC[C@H]5C[C@@H](O)CC[C@]5(C)[C@H]4CC[C@]23C)=NC1 test_readout=GI50 value_reported="20.4 µM (inactive)"
molecule=N#Cc1ccc(Oc2nc3ccc(C(F)(F)F)cc3nc2-c2ccccc2)cc1 test_readout=GI50 value_reported="21.8 µM (inactive)"
molecule="COc1cccc(C2=NC(C(C)C)CO2)c1 (centres undefined)" test_readout=GI50 value_reported="> 100 µM (inactive)"
molecule="Cc1ccc(S(=O)(=O)NC(C(=O)O)C(C)C)cc1 (centres undefined)" test_readout=GI50 value_reported="> 100 µM (inactive)"
molecule="O=C1O/C(=C\\C=C\\CO)C=C1/C=C/CO [LISSOCLINOLIDE]" test_readout=GI50 value_reported="24.2 µM (inactive)"
molecule=C#Cc1ccccc1C(=O)OC test_readout=GI50 value_reported="> 100 µM (inactive)"
molecule=CCCCCCCCCCCCCC(=S)N/C=C/OC test_readout=GI50 value_reported="23.6 µM (inactive)"
molecule="CC(C)/C=C1\\CCC(CN2CCOCC2)C1=O (centres undefined)" test_readout=GI50 value_reported="18.2 µM (inactive)"
molecule="CO[C@H]1C=CO[C@@]2(C)Oc3c(C)c(O)c4c(O)c(c(CN5CCN(C)CC5)c(O)c4c3C2=O)NC(=O)/C(C)=C\\C=C[C@H](C)[C@H](O)C(C)[C@@H](O)C(C)[C@H](OC(C)=O)[C@@H]1C (some centres undefined)" test_readout=GI50 value_reported="2.88 µM (inactive)"

###

System: HCC 2998
Assay: NCI tumour cell line growth inhibition, 48 h
Activity calls are given as the source filed them. No stated cut-off is given here; in the data, active = GI50 up to about 1.1 µM and inactive = higher.
Each entry below lists one item and its recorded GI50 value.
TEST READOUT: GI50

molecule=Oc1ccc(N=C2CCC(=C(c3ccccc3)c3ccc(Nc4ccc(O)cc4)cc3)CC2)cc1 test_readout=GI50 value_reported="64.3 µM (inactive)"
molecule=COC(=O)/C(C)=C/[N+](=O)[O-] test_readout=GI50 value_reported="17.3 µM (inactive)"
molecule="NC(=O)N1N=C2c3ccccc3CC[C@@H]2C1c1ccccc1 (stereo partly specified)" test_readout=GI50 value_reported="> 100 µM (inactive)"
molecule=C/C(CC(=O)Nc1cc(Cl)c(Cl)cc1Cl)=N\NC(N)=O test_readout=GI50 value_reported="> 100 µM (inactive)"
molecule=CCC1=C(c2ccc(OC)cc2)CC[C@]2(CCNC2=O)[C@@H]1C test_readout=GI50 value_reported="28.4 µM (inactive)"
molecule="CCCC1(CC(=O)O)OCCc2c1[nH]c1ccccc21 (stereo unspecified)" test_readout=GI50 value_reported="> 100 µM (inactive)"
